Origin of the recorded values: patent US20110144069A1

# Tested on: mock-infected MT-4 cells
# Experimental Details: Compound toxicity in mock-infected cells (WST-1 assay)
# Type: cell-based
# Condition Label: toxicity measure, host cells; read-out: TC50 (concentration of compound that results in death of 50% of the host cells)
Each entry below carries its recorded CC50.

Smiles Record	System Name	CC50
C=C(C)[C@@H]1CC[C@]2(C(=O)NCc3ccccc3C(=O)O)CC[C@]3(C)[C@H](CC[C@@H]4[C@@]5(C)CC[C@H](OC(=O)CC(C)(C)C(=O)O)C(C)(C)[C@@H]5CC[C@]43C)[C@@H]12	mock-infected MT-4 cells	~6.3 µM
C=C(C)[C@@H]1CC[C@]2(C(=O)NCc3ccc(C(=O)O)cc3)CC[C@]3(C)[C@H](CC[C@@H]4[C@@]5(C)CC[C@H](OC(=O)CC(C)(C)C(=O)O)C(C)(C)[C@@H]5CC[C@]43C)[C@@H]12	mock-infected MT-4 cells	~7.7 µM
